Just for reference, patent US7737136B2 is where these values come from.

assay-system: human progesterone receptor-B (Homo sapiens, UniProt P06401)
Construct: expressed in transfected cells; host or cells: Chinese hamster ovary (CHO) cells, line CHO-PRB-pMMTV-LUC 1E2-A2
Sequence (P06401 whole entry): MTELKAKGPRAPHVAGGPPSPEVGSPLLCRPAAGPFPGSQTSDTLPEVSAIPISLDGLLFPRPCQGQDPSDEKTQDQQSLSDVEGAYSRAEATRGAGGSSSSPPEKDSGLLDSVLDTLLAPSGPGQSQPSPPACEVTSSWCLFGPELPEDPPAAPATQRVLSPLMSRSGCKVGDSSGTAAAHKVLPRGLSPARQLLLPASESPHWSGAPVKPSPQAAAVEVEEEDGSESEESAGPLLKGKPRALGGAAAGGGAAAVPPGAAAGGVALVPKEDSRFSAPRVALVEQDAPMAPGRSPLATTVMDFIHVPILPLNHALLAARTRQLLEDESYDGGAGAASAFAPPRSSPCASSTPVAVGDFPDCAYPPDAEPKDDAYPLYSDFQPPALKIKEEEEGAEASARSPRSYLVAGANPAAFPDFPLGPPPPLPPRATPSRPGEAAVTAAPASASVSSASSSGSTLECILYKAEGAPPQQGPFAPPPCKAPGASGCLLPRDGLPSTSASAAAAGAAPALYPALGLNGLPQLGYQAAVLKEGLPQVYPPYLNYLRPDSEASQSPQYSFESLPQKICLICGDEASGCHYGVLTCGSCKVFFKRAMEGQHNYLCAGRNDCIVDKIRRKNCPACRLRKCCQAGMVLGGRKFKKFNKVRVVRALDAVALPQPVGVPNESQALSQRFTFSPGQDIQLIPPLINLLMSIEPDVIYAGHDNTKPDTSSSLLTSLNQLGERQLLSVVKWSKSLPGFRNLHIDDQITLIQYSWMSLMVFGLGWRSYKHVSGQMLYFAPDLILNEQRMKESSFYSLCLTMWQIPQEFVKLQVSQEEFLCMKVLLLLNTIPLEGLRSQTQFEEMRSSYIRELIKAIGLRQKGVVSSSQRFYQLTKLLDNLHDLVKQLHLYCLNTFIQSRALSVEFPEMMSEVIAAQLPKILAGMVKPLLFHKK
method: Progesterone receptor-B transactivation assay, progestagenic (agonist) activity, CHO-PRB-pMMTV-LUC 1E2-A2 cells
Type: cell-based
experimental-parameters: CHO cells stably transfected with human progesterone receptor-B and MMTV-luciferase reporter; read-out: Progestagenic activity EC50
pEC50: −log10 of the molar value.
Measured pEC50, listed per entry.

- compound: "CS(=O)(=O)N(c1cc2c(cc1Cl)N1CCC[C@H](NC(=O)C(F)(F)F)[C@H]1c1ccccc1O2)S(C)(=O)=O (relative stereo) [Example 44]"
  assay-system: "human progesterone receptor-B (Homo sapiens, UniProt P06401)"
  pEC50: "5.00 to 7.00"
- compound: "O=C(N[C@H]1CCCN2c3cc(Cl)ccc3Nc3ccccc3[C@H]12)C(F)(F)F (relative stereo) [Example 78]"
  assay-system: "human progesterone receptor-B (Homo sapiens, UniProt P06401)"
  pEC50: "7.00 to 8.00"
- compound: "CC(=O)c1cc(F)cc2c1N1CCC[C@H](NC(=O)C(F)(F)F)[C@H]1c1ccccc1O2 (relative stereo) [Example 57]"
  assay-system: "human progesterone receptor-B (Homo sapiens, UniProt P06401)"
  pEC50: "> 8.00"
- compound: "CC(=O)N[C@H]1CCCN2c3cc(Cl)ccc3Oc3ccccc3[C@H]12 (relative stereo) [Example 10]"
  assay-system: "human progesterone receptor-B (Homo sapiens, UniProt P06401)"
  pEC50: "5.00 to 7.00"
- compound: "O=C(N[C@H]1CCCN2c3cc(Cl)ccc3Cc3ccccc3[C@H]12)C(F)(F)F (relative stereo) [Example 8]"
  assay-system: "human progesterone receptor-B (Homo sapiens, UniProt P06401)"
  pEC50: "> 8.00"
- compound: "S=CN[C@H]1CCCN2c3cc(Cl)ccc3Oc3ccccc3[C@H]12 (relative stereo) [Example 18]"
  assay-system: "human progesterone receptor-B (Homo sapiens, UniProt P06401)"
  pEC50: "5.00 to 7.00"
- compound: "N#Cc1cc(F)cc2c1N1CCC[C@H](NC(=O)C(F)(F)F)[C@H]1c1ccccc1O2 (relative stereo) [Example 58]"
  assay-system: "human progesterone receptor-B (Homo sapiens, UniProt P06401)"
  pEC50: "> 8.00"
- compound: "CN(C(=S)C(F)(F)F)C1CCCN2c3cc(Cl)ccc3Oc3ccccc3C12 (centres unmarked) [Example 24]"
  assay-system: "human progesterone receptor-B (Homo sapiens, UniProt P06401)"
  pEC50: "7.00 to 8.00"
- compound: "CC(=O)c1ccc2c(c1)N1CCC[C@H](NC(=O)C(F)(F)F)[C@H]1c1ccccc1O2 (relative stereo) [Example 62]"
  assay-system: "human progesterone receptor-B (Homo sapiens, UniProt P06401)"
  pEC50: "7.00 to 8.00"
- compound: "CCC(=O)Nc1ccc2c(c1)N1CCC[C@H](NC(=O)C(F)(F)F)[C@H]1c1ccccc1O2 (relative stereo) [Example 67]"
  assay-system: "human progesterone receptor-B (Homo sapiens, UniProt P06401)"
  pEC50: "5.00 to 7.00"
- compound: "O=C(N[C@H]1CCCN2c3cc(Cl)ccc3Oc3c(F)cccc3[C@H]12)C(F)(F)F (relative stereo) [Example 72]"
  assay-system: "human progesterone receptor-B (Homo sapiens, UniProt P06401)"
  pEC50: "7.00 to 8.00"
- compound: "FC(F)(F)C(=S)N[C@H]1CCCN2c3ccccc3Oc3ccccc3[C@H]12 (relative stereo) [Example 25]"
  assay-system: "human progesterone receptor-B (Homo sapiens, UniProt P06401)"
  pEC50: "> 8.00"
- compound: "CC(C)(C)OC(=O)Nc1cc2c(cc1Cl)N1CCC[C@H](NC(=O)C(F)(F)F)[C@H]1c1ccccc1O2 (relative stereo) [Example 46]"
  assay-system: "human progesterone receptor-B (Homo sapiens, UniProt P06401)"
  pEC50: "7.00 to 8.00"
- compound: "C=Cc1ccc2c(c1)N1CCC[C@H](NC(=O)C(F)(F)F)[C@H]1c1ccccc1O2 (relative stereo) [Example 64]"
  assay-system: "human progesterone receptor-B (Homo sapiens, UniProt P06401)"
  pEC50: "5.00 to 7.00"
